System: HL-60
Assay: NCI tumour cell line growth inhibition, 48 h
Calls of active or inactive are those of the source. Cut-off read from the data, not from the text of the source: active = GI50 up to about 1.1 µM and inactive = higher.
Entry note: the call must match one of Y = active, N = inactive

Below are worked cases with known answers.
CC[n+]1c(/C=C/c2ccc(N(CCCl)CCCl)cc2)ccc2cc(Br)ccc21 :: Y
COC(=O)C12CC3CC(CC(C(=O)O)(C3)C1)C2 :: N
CC(=O)O[C@]12CCC[C@H]1C1(O)C(O)CCC[C@H]12 (some centres undefined) :: N

Consider the additional compound presented here.
Check the results log: what was the call for Cc1ccccc1NC(=O)Cc1csc(N/N=C2\NC(=O)/C(=C/c3cccc([N+](=O)[O-])c3)S2)n1 ?
N

----------
Answer each item with its documented GI50.
System: HOP-62
Test: NCI tumour cell line growth inhibition, 48 h
Activity calls are given as the source filed them. No stated cut-off is given here; in the data, active = GI50 up to about 1.1 µM and inactive = higher.

I have 2 compounds here; please give me GI50 for each one.
1. CCOC(OC1=C(C#N)CCCC1)C(CC)[Se]c1ccccc1 (stereo unspecified)
2. C=C(C)CCN(C(=O)OC(C)(C)C)c1cc(C(C)C)co1

1: 59.7 µM (inactive); 2: > 100 µM (inactive)

Give one value of GI50 per listed compound.
1. CCOC(=O)C12CCCC1(O)N(NC(=O)c1ccccc1)C(C)=C2C(=O)OC (stereo unspecified)
2. O=C1Cc2c([nH]c3ccccc23)-c2cc(Br)ccc2N1
3. CC(C)=NNC(=S)NC12CC3CC(CC(C3)C1)C2
4. Cc1cc2c(c(C(=O)NCC(=O)O)c1)Oc1c(cc(C)cc1C(=O)NCC(=O)O)S2

["> 100 µM (inactive)", "> 100 µM (inactive)", "> 100 µM (inactive)", "> 100 µM (inactive)"]

----------
System: MDA-N
Assay: NCI tumour cell line growth inhibition, 48 h
Activity calls are given as the source filed them. No stated cut-off is given here; in the data, active = GI50 up to about 1.1 µM and inactive = higher.
Can you tell me GI50 for the items I'm about to list?

# map each molecule to its GI50
1. CN1CCN(/C(N)=C(\C#N)C(=O)Nc2ccccc2)CC1
2. CN(C)CCn1c(=O)nc2c3c(c([N+](=O)[O-])ccc31)Nc1ccc(O)cc1-2
3. C[C@]12CC[C@@H]3c4ccc(O)cc4CC[C@H]3[C@@H]1CC[C@@H]2OP(=O)(O)O

1: > 100 µM (inactive); 2: 6.7 µM (inactive); 3: > 100 µM (inactive)

Give me GI50 for each of these molecules, listed below.
1. Clc1cc(-c2ccccc2)nc2ccccc12
2. Cc1ccccc1NC(=O)Cc1csc(N/N=C2\NC(=O)/C(=C/c3cccc([N+](=O)[O-])c3)S2)n1
3. CC(C)c1ccc2c(c1)/C(=C1/Nc3ccccc3C1=O)C(=O)N2

26 µM (inactive)
30.5 µM (inactive)
28.8 µM (inactive)

----------
Tested on: T47D
Assay: NCI tumour cell line growth inhibition, 48 h
The source made the active and inactive calls. No stated cut-off is given here; in the data, active = GI50 up to about 1.1 µM and inactive = higher.
Would you mind telling me the reported GI50 of each entry?

Answered examples (6):
CCOC(=O)CC(=O)CSc1c(-c2ccccc2)c(=O)n(-c2ccccc2)c(=S)n1-c1ccccc1 :: > 100 µM (inactive)
Cc1cc2c(c(C(=O)NCC(=O)O)c1)Oc1c(cc(C)cc1C(=O)NCC(=O)O)S2 :: > 100 µM (inactive)
N#CC(C#N)=C1SC(=N\c2ccccc2)/C(=N/c2ccccc2)N1c1ccccc1 :: 5.38 µM (inactive)
COc1ccc(NC(=O)CC(=O)n2nc(C)c(/N=N/c3cccc(C)c3)c2C)cc1 :: > 100 µM (inactive)
CC(=O)Nc1ccc(C2SCc3nc4ccccc4n32)cc1 (configuration not stated) :: 48.9 µM (inactive)
C=C1C(=O)OC2/C=C(/C)C(OC(C)=O)CC(O)/C(C)=C\C(OC(=O)/C(C)=C\C)C12 (configuration not stated) :: 52.6 µM (inactive)

Would you mind giving GI50 for every molecule in the list below?
1. Cc1ccc(Nc2n[nH]c(NS(=O)(=O)c3cc(C(=O)Nc4ccc(Cl)cc4)c(Cl)cc3S)n2)cc1
2. Cc1ccc(/N=N/c2c(O)ccc3ccccc23)c(C)c1
3. CCCN1CN(c2ccccc2)C2(CCN(CCCC(=O)c3ccc(F)cc3)CC2)C1=O
4. O=C1Cc2c([nH]c3ccc(C(=O)O)cc23)-c2ccccc2N1
5. Cc1cc2[nH]c(=NS(=O)(=O)c3cc(C)c(Cl)cc3S)[nH]c2cc1C

["63.2 µM (inactive)", "> 100 µM (inactive)", "4.61 µM (inactive)", "> 100 µM (inactive)", "82.2 µM (inactive)"]

Entry c1nc(N2CC2)c2cnn(C3CCCCO3)c2n1 (configuration not stated) has what GI50?
> 100 µM (inactive)
